# System: CHO cells
# ASSAY REMARKS: Study of metabolism in vitro in CHO cells, steroids in culture medium by GC/MS
# TEST PARAMETERS: CHO cells
MEASURED ENDPOINT: metabolism in downstream active steroids (Reduced metabolism / Metabolized)

COMPOUND: CC(=O)[C@@]1(C)CCC2C3CC=C4C[C@@H](OCc5ccccc5)CC[C@]4(C)C3CC[C@@]21C (stereo partly drawn) [Compound 42, 3β-Benzyloxy-17α-methylpregnenolone]
MEASUREMENT: Reduced metabolism
--
COMPOUND: CC(=O)C1=CCC2C3CC=C4C[C@@H](O)CC[C@]4(C)C3CC[C@]12C (stereo partly drawn) [Compound 7, 5,16-Pregnadien-3β-ol-20-one]
MEASUREMENT: Metabolized
--
COMPOUND: C[C@]12CCC3C(CC[C@@H]4C[C@@H](O)CC[C@]34C)C1CC[C@@H]2C(=O)CO (stereo partly drawn) [Compound 75, 5α-Pregnan-3α,21-diol-20-one]
MEASUREMENT: Metabolized
--
COMPOUND: CCC1=CC[C@H]2[C@@H]3CC=C4C[C@@H](O)CC[C@]4(C)[C@H]3CC[C@]12C [Compound 6, 5,16-Pregnadien-3β-ol]
MEASUREMENT: Metabolized
--
COMPOUND: CC(=O)[C@H]1CCC2C3CC[C@@H]4C[C@@H](O)CC[C@]4(C)C3CC[C@@]21C (stereo partly drawn) [Compound 46, reference compound]
MEASUREMENT: Metabolized
--
COMPOUND: COC1(C(C)=O)CCC2C3CC=C4C[C@@H](O)CC[C@]4(C)C3CC[C@@]21C (stereo partly drawn) [Compound 36, 17-Methoxypregnenolone]
MEASUREMENT: Reduced metabolism
--
COMPOUND: CC(=O)[C@H]1CCC2C3CCC4=C[C@@H](O)CC[C@]4(C)C3CC[C@@]21C (stereo partly drawn) [Compound 17, 4-Pregnen-3β-ol-20-one]
MEASUREMENT: Metabolized
--
COMPOUND: CC(=O)[C@]1(O)CCC2C3CC=C4C[C@@H](OC(=O)CCC(=O)O)CC[C@]4(C)C3CC[C@@]21C (stereo partly drawn) [Compound 23, 17α-Hydroxypregnenolone hemisuccinate]
MEASUREMENT: Metabolized
--
COMPOUND: C[C@@H](O)[C@H]1CCC2C3CC=C4C[C@@H](O)CC[C@]4(C)C3CC[C@@]21C (stereo partly drawn) [Compound 21, 5-Pregnen-3β,20β-diol]
MEASUREMENT: Metabolized
--
COMPOUND: C[C@@H](O)[C@H]1CCC2C3CCC4=CC(=O)CC[C@]4(C)C3CC[C@@]21C (stereo in doubt) [Compound 18, 4-Pregnen-20α-ol-3-one]
MEASUREMENT: Reduced metabolism
--
COMPOUND: CC(O)C1=CC[C@H]2[C@@H]3CC=C4C[C@@H](O)CC[C@]4(C)[C@H]3CC[C@]12C (stereo partly drawn) [Compound 38, 5,16-Pregnadien-3β,20-diol]
MEASUREMENT: Metabolized
--
COMPOUND: CC(=O)[C@H]1CCC2C3CC=C4C[C@@H](OCc5ccccc5)CC[C@]4(C)C3CC[C@@]21C (stereo partly drawn) [Compound 41, 3β-Benzyloxypregnenolone]
MEASUREMENT: Reduced metabolism

---

# TARGET UNDER TEST: CB1 receptor (Mus musculus, UniProt P47746)
# Sequence (P47746 whole entry): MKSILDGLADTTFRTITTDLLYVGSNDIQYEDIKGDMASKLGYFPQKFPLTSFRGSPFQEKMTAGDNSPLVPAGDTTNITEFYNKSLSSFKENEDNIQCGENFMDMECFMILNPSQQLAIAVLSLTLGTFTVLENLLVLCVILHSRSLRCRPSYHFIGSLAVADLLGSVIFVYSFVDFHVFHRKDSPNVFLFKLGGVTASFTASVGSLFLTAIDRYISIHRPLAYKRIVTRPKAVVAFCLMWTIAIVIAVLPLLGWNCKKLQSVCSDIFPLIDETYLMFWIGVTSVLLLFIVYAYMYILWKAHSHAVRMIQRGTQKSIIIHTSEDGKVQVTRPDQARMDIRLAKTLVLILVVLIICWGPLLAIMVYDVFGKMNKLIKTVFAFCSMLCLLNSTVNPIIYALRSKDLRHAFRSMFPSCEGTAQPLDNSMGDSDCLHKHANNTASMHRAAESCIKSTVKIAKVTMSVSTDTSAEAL
# ASSAY REMARKS: THC-induced cannabinoid tetrad (body temperature, locomotor activity, catalepsy, analgesia)
# Type: in vivo, mice
# Parameters: tissue Charles River Laboratories (France) (animals); host or cells: living mice, whole animal
# TEST PARAMETERS: mice; THC 10 mg/kg; compounds 6 mg/kg 15-30 min before THC

MOLECULE: CC(=O)[C@@]1(C)CCC2C3CC=C4C[C@@H](O)CC[C@]4(C)C3CC[C@@]21C (stereo partly shown)
% Inhibition temperature decrease: 43%, P < 0.001
--
MOLECULE: C[C@@H](O)[C@H]1CCC2C3CCC4=CC(=O)CC[C@]4(C)C3CC[C@@]21C (stereo in doubt)
% Inhibition temperature decrease: 25%, P < 0.04
--
MOLECULE: CC[C@H]1CCC2C3CC=C4C[C@@H](O)CC[C@]4(C)C3CC[C@@]21C (stereo partly shown)
% Inhibition temperature decrease: 25%, P < 0.08
--
MOLECULE: CC(=O)[C@H]1CC[C@H]2[C@@H]3CC[C@@H]4CC(=O)CC[C@]4(C)[C@H]3CC[C@]12C
% Inhibition temperature decrease: 66%, P < 0.0001
--
MOLECULE: CC(=O)C1=CC[C@H]2[C@@H]3CC=C4CCCC[C@]4(C)[C@H]3CC[C@]12C
% Inhibition temperature decrease: 56%, P < 0.001
--
MOLECULE: CC(=O)[C@H]1CCC2C3CC=C4C[C@@H](OCc5ccccc5)CC[C@]4(C)C3CC[C@@]21C (stereo partly shown)
% Inhibition temperature decrease: 38%, P < 0.001
--
MOLECULE: CC[C@]1(C(C)=O)CCC2C3CC=C4C[C@@H](O)CC[C@]4(C)C3CC[C@@]21C (stereo partly shown)
% Inhibition temperature decrease: 12%, P > 0.25

---

# TARGET UNDER TEST: CB1 receptor (Mus musculus)
# ASSAY REMARKS: THC-induced cannabinoid tetrad (body temperature, locomotor activity, catalepsy, analgesia)
# Type: in vivo, mice
# Set-up: tissue Charles River Laboratories (France) (animals); host or cells: living mice, whole animal
# TEST PARAMETERS: mice; THC 10 mg/kg; compounds 6 mg/kg 15-30 min before THC
MEASURED ENDPOINT: % increase in motor activity

COMPOUND: CO[C@H]1CC[C@@]2(C)C(=CCC3C2CC[C@@]2(C)C3CC[C@]2(C)C(C)=O)C1 (stereo partly drawn)
MEASUREMENT: −32%, P > 0.24
--
COMPOUND: CC(=O)C1=CC[C@H]2[C@@H]3CC=C4CCCC[C@]4(C)[C@H]3CC[C@]12C
MEASUREMENT: 309%, P < 0.001
--
COMPOUND: COC1(C(C)=O)CCC2C3CC=C4C[C@@H](O)CC[C@]4(C)C3CC[C@@]21C (stereo partly drawn)
MEASUREMENT: 326%, P < 0.001

---

# TARGET UNDER TEST: CB1 receptor (Mus musculus)
# ASSAY REMARKS: THC-induced cannabinoid tetrad (body temperature, locomotor activity, catalepsy, analgesia)
# Format: in vivo, mice
# Parameters: tissue Charles River Laboratories (France) (animals); host or cells: living mice, whole animal
# TEST PARAMETERS: mice; THC 10 mg/kg; compounds 6 mg/kg 15-30 min before THC
This listing pairs compounds with measured % increase in motor activity.
MEASURED ENDPOINT: % increase in motor activity

COMPOUND: CNC(C)[C@H]1CC[C@H]2[C@@H]3CC=C4C[C@@H](O)CC[C@]4(C)[C@H]3CC[C@]12C (stereo partly drawn)
MEASUREMENT: −20%, P > 0.35
//
COMPOUND: CC[C@H]1CCC2C3CC=C4C[C@@H](O)CC[C@]4(C)C3CC[C@@]21C (stereo partly drawn)
MEASUREMENT: 33%, P > 0.20
//
COMPOUND: C[C@H](O)[C@@]1(O)CCC2C3CCC4=CC(=O)CC[C@]4(C)C3CC[C@@]21C (stereo in doubt)
MEASUREMENT: 277%, P < 0.004

---

# TARGET UNDER TEST: UniProtKB P47746
# ASSAY REMARKS: THC-induced cannabinoid tetrad (body temperature, locomotor activity, catalepsy, analgesia)
# Format: in vivo, mice
# Set-up: tissue Charles River Laboratories (France) (animals); host or cells: living mice, whole animal
# TEST PARAMETERS: mice; THC 10 mg/kg; compounds 6 mg/kg 15-30 min before THC

COMPOUND: C=CC[C@]1(C(C)=O)CCC2C3CC=C4C[C@@H](OC)CC[C@]4(C)C3CC[C@@]21C (stereo partly shown)
TARGET UNDER TEST: UniProtKB P47746
% increase in motor activity: −49%, P > 0.1

COMPOUND: CC[C@]1(C(C)=O)CCC2C3CC=C4C[C@@H](O)CC[C@]4(C)C3CC[C@@]21C (stereo partly shown)
TARGET UNDER TEST: UniProtKB P47746
% increase in motor activity: −2%, P > 0.25

COMPOUND: C[C@@H](O)[C@H]1CCC2C3CCC4=C[C@@H](O)CC[C@]4(C)C3CC[C@@]21C (stereo in doubt)
TARGET UNDER TEST: UniProtKB P47746
% increase in motor activity: 100%, P < 0.16

COMPOUND: CC(=O)[C@@]1(C)CCC2C3CC=C4C[C@@H](O)CC[C@]4(C)C3CC[C@@]21C (stereo partly shown)
TARGET UNDER TEST: UniProtKB P47746
% increase in motor activity: 240%, P < 0.01

COMPOUND: CC(=O)[C@H]1CCC2C3CC[C@@H]4C[C@@H](O)CC[C@]4(C)C3CC[C@@]21C (stereo partly shown)
TARGET UNDER TEST: UniProtKB P47746
% increase in motor activity: 177%, P < 0.02

COMPOUND: CC(=O)[C@H]1CC[C@H]2[C@@H]3CC[C@@H]4CC(=O)CC[C@]4(C)[C@H]3CC[C@]12C
TARGET UNDER TEST: UniProtKB P47746
% increase in motor activity: 70%, P < 0.05

COMPOUND: CC(=O)[C@H]1CCC2C3CC=C4C[C@@H](OCc5ccccc5)CC[C@]4(C)C3CC[C@@]21C (stereo partly shown)
TARGET UNDER TEST: UniProtKB P47746
% increase in motor activity: 106%, P < 0.03

COMPOUND: CC(=O)[C@H]1CCC2C3CC=C4CC(N=[N+]=[N-])CC[C@]4(C)C3CC[C@@]21C (stereo partly shown)
TARGET UNDER TEST: UniProtKB P47746
% increase in motor activity: 145%, P < 0.05

COMPOUND: C[C@H](O)[C@H]1CCC2C3CC=C4C[C@@H](O)CC[C@]4(C)C3CC[C@@]21C (stereo partly shown)
TARGET UNDER TEST: UniProtKB P47746
% increase in motor activity: 123%, P < 0.04

COMPOUND: CC(=O)[C@@]1(C)CCC2C3CCC4=CC(=O)CC[C@]4(C)C3CC[C@@]21C (stereo partly shown)
TARGET UNDER TEST: UniProtKB P47746
% increase in motor activity: 57%, P < 0.21

COMPOUND: C[C@@H](O)[C@H]1CCC2C3CCC4=CC(=O)CC[C@]4(C)C3CC[C@@]21C (stereo in doubt)
TARGET UNDER TEST: UniProtKB P47746
% increase in motor activity: 146%, P < 0.1

COMPOUND: CO[C@H]1CC[C@@]2(C)C(=CCC3C2CC[C@@]2(C)C3CC[C@]2(Cc2ccccc2)C(C)=O)C1 (stereo partly shown)
TARGET UNDER TEST: UniProtKB P47746
% increase in motor activity: 2%, P > 0.48

COMPOUND: CC(=O)[C@@]1(Cc2ccccc2)CCC2C3CC=C4C[C@@H](O)CC[C@]4(C)C3CC[C@@]21C (stereo partly shown)
TARGET UNDER TEST: UniProtKB P47746
% increase in motor activity: 142%, P < 0.03
